assay: Half-lives and pharmacokinetic parameters of polypeptides vs HM-1; settings: in vivo; read-out: AUC0-∞
Peptide text beside a SMILES is read from it. * marks the point of attachment. Propanoyl(3-maleimido) = O=C1C=CC(=O)N1CCC(=O)*; X45 = O=C1C=CC(=O)N1CCCCC(=O)*

>  <MOLECULE>
C[C@H](NC(=O)CNC(=O)[C@H](CCCNC(=N)N)NC(=O)CCCCN1C(=O)C=CC1=O)C(=O)N[C@@H](CC(=O)O)C(=O)N[C@@H](CCCNC(=N)N)C(=O)N[C@@H](C)C(=O)NCC(=O)NCC(=O)NCC(=O)NCC(=O)N[C@@H](CCCNC(=N)N)C(=O)NCC(=O)N[C@@H](CC(=O)O)C(=O)O [X4] (X45-RGADRAGGGGRGD-OH)

>  <AUC(0-inf) / ng·h/mL>
30100

$$$$
>  <MOLECULE>
C[C@H](NC(=O)CNC(=O)[C@H](CCCNC(=N)N)NC(=O)CCN1C(=O)C=CC1=O)C(=O)N[C@@H](CC(=O)O)C(=O)N[C@@H](CCCNC(=N)N)C(=O)N[C@@H](C)C(=O)NCC(=O)NCC(=O)NCC(=O)NCC(=O)N[C@@H](CCCNC(=N)N)C(=O)NCC(=O)N[C@@H](CC(=O)O)C(=O)O [X2] ({Propanoyl(3-maleimido)}-RGADRAGGGGRGD-OH)

>  <AUC(0-inf) / ng·h/mL>
27800

$$$$

###

tested on: human retinal capillary endothelial cells (HRCECs); experiment: MTT proliferation inhibition on HRCECs; format: cell-based; conditions: 48 h, dose 0.2 μM
Peptide text beside a SMILES is read from it. * marks the point of attachment. X71 = O=C1C=CC(=O)N1c1cccc(CCCCCC(=O)*)c1; X63 = O=C1C=CC(=O)N1c1ccccc1CCCCCCC(=O)*; X75 = O=C1C=CC(=O)N1c1cccc(CC(=O)*)c1
As shown below, each of these molecules has a reported Inhibition rate (%) value.
TEST READOUT: Inhibition rate (%) (%*)

>  <MOLECULE>
C[C@H](NC(=O)CNC(=O)[C@H](CCCNC(=N)N)NC(=O)CCCCCCc1ccccc1N1C(=O)C=CC1=O)C(=O)N[C@@H](CC(=O)O)C(=O)N[C@@H](CCCNC(=N)N)C(=O)N[C@@H](C)C(=O)NCC(=O)NCC(=O)NCC(=O)NCC(=O)N[C@@H](CCCNC(=N)N)C(=O)NCC(=O)N[C@@H](CC(=O)O)C(=O)O [X18] (X63-RGADRAGGGGRGD-OH)

>  <MEASURE UNIT>
%*

>  <REPORTED VALUE>
61.78

$$$$
>  <MOLECULE>
C[C@H](NC(=O)CNC(=O)[C@H](CCCNC(=N)N)NC(=O)Cc1cccc(N2C(=O)C=CC2=O)c1)C(=O)N[C@@H](CC(=O)O)C(=O)N[C@@H](CCCNC(=N)N)C(=O)N[C@@H](C)C(=O)NCC(=O)NCC(=O)NCC(=O)NCC(=O)N[C@@H](CCCNC(=N)N)C(=O)NCC(=O)N[C@@H](CC(=O)O)C(=O)O [X25] (X75-RGADRAGGGGRGD-OH)

>  <MEASURE UNIT>
%*

>  <REPORTED VALUE>
63.33

$$$$
>  <MOLECULE>
C[C@H](NC(=O)CNC(=O)[C@H](CCCNC(=N)N)NC(=O)CCCCCc1cccc(N2C(=O)C=CC2=O)c1)C(=O)N[C@@H](CC(=O)O)C(=O)N[C@@H](CCCNC(=N)N)C(=O)N[C@@H](C)C(=O)NCC(=O)NCC(=O)NCC(=O)NCC(=O)N[C@@H](CCCNC(=N)N)C(=O)NCC(=O)N[C@@H](CC(=O)O)C(=O)O [X29] (X71-RGADRAGGGGRGD-OH)

>  <MEASURE UNIT>
%*

>  <REPORTED VALUE>
61.03

$$$$

###

List of clearance values.
assay: Half-lives and pharmacokinetic parameters of polypeptides vs HM-1; details: in vivo
Peptide text beside a SMILES is read from it. * marks the point of attachment. X7 = O=C1C=CC(=O)N1CCOCCOCCOCCOCCOCCOCCCCCCC(=O)*; X65 = O=C1C=CC(=O)N1c1cccc(CCCCCCCCCCCCC(=O)*)c1; X53 = O=C1C=CC(=O)N1CCOCCOCCOCCOCCCCCCC(=O)*
TEST READOUT: clearance

>  <MOLECULE>
C[C@H](NC(=O)CNC(=O)[C@H](CCCNC(=N)N)NC(=O)CCCCCCCCCCCCc1cccc(N2C(=O)C=CC2=O)c1)C(=O)N[C@@H](CC(=O)O)C(=O)N[C@@H](CCCNC(=N)N)C(=O)N[C@@H](C)C(=O)NCC(=O)NCC(=O)NCC(=O)NCC(=O)N[C@@H](CCCNC(=N)N)C(=O)NCC(=O)N[C@@H](CC(=O)O)C(=O)O [X36] (X65-RGADRAGGGGRGD-OH)

>  <REPORTED VALUE>
0.592 mL/min/kg

$$$$
>  <MOLECULE>
C[C@H](NC(=O)CNC(=O)[C@H](CCCNC(=N)N)NC(=O)CCCCCCOCCOCCOCCOCCN1C(=O)C=CC1=O)C(=O)N[C@@H](CC(=O)O)C(=O)N[C@@H](CCCNC(=N)N)C(=O)N[C@@H](C)C(=O)NCC(=O)NCC(=O)NCC(=O)NCC(=O)N[C@@H](CCCNC(=N)N)C(=O)NCC(=O)N[C@@H](CC(=O)O)C(=O)O [X75] (X53-RGADRAGGGGRGD-OH)

>  <REPORTED VALUE>
0.623 mL/min/kg

$$$$
>  <MOLECULE>
C[C@H](NC(=O)CNC(=O)[C@H](CCCNC(=N)N)NC(=O)CCCCCCOCCOCCOCCOCCOCCOCCN1C(=O)C=CC1=O)C(=O)N[C@@H](CC(=O)O)C(=O)N[C@@H](CCCNC(=N)N)C(=O)N[C@@H](C)C(=O)NCC(=O)NCC(=O)NCC(=O)NCC(=O)N[C@@H](CCCNC(=N)N)C(=O)NCC(=O)N[C@@H](CC(=O)O)C(=O)O [X89] (X7-RGADRAGGGGRGD-OH)

>  <REPORTED VALUE>
0.505 mL/min/kg

$$$$

###

tested on: adjuvant arthritis; assay: Rat adjuvant arthritis (AA) animal model; format: in vivo, SD rats; conditions: 4.0 mg/kg, intravenous in the tail once every five days from day 10, mean±SD
Peptide text beside a SMILES is read from it. * marks the point of attachment. X59 = O=C1C=CC(=O)N1c1cccc(CCCCCCCCC(=O)*)c1; X54 = O=C1C=CC(=O)N1c1cccc(CCCCCCC(=O)*)c1; X79 = O=C1C=CC(=O)N1c1cccc(CCC(=O)*)c1
TEST READOUT: Joint swelling degree (mm)

>  <COMPOUND>
C[C@H](NC(=O)CNC(=O)[C@H](CCCNC(=N)N)NC(=O)CCCCCCc1cccc(N2C(=O)C=CC2=O)c1)C(=O)N[C@@H](CC(=O)O)C(=O)N[C@@H](CCCNC(=N)N)C(=O)N[C@@H](C)C(=O)NCC(=O)NCC(=O)NCC(=O)NCC(=O)N[C@@H](CCCNC(=N)N)C(=O)NCC(=O)N[C@@H](CC(=O)O)C(=O)O [X30] (X54-RGADRAGGGGRGD-OH)

>  <MEASURE UNIT>
mm

>  <REPORTED VALUE>
0.82

$$$$
>  <COMPOUND>
C[C@H](NC(=O)CNC(=O)[C@H](CCCNC(=N)N)NC(=O)CCc1cccc(N2C(=O)C=CC2=O)c1)C(=O)N[C@@H](CC(=O)O)C(=O)N[C@@H](CCCNC(=N)N)C(=O)N[C@@H](C)C(=O)NCC(=O)NCC(=O)NCC(=O)NCC(=O)N[C@@H](CCCNC(=N)N)C(=O)NCC(=O)N[C@@H](CC(=O)O)C(=O)O [X26] (X79-RGADRAGGGGRGD-OH)

>  <MEASURE UNIT>
mm

>  <REPORTED VALUE>
0.74

$$$$
>  <COMPOUND>
C[C@H](NC(=O)CNC(=O)[C@H](CCCNC(=N)N)NC(=O)CCCCCCCCc1cccc(N2C(=O)C=CC2=O)c1)C(=O)N[C@@H](CC(=O)O)C(=O)N[C@@H](CCCNC(=N)N)C(=O)N[C@@H](C)C(=O)NCC(=O)NCC(=O)NCC(=O)NCC(=O)N[C@@H](CCCNC(=N)N)C(=O)NCC(=O)N[C@@H](CC(=O)O)C(=O)O [X32] (X59-RGADRAGGGGRGD-OH)

>  <MEASURE UNIT>
mm

>  <REPORTED VALUE>
0.81

$$$$

###

assay: Half-lives and pharmacokinetic parameters of polypeptides vs HM-1; details: in vivo
Peptide text beside a SMILES is read from it. * marks the point of attachment. X36 = O=C1C=CC(=O)N1c1ccc(CCCCCCCCCCCC(=O)*)cc1; X78 = O=C1C=CC(=O)N1c1ccc(CCCC(=O)*)cc1

>  <COMPOUND>
C[C@H](NC(=O)CNC(=O)[C@H](CCCNC(=N)N)NC(=O)CCCc1ccc(N2C(=O)C=CC2=O)cc1)C(=O)N[C@@H](CC(=O)O)C(=O)N[C@@H](CCCNC(=N)N)C(=O)N[C@@H](C)C(=O)NCC(=O)NCC(=O)NCC(=O)NCC(=O)N[C@@H](CCCNC(=N)N)C(=O)NCC(=O)N[C@@H](CC(=O)O)C(=O)O [X39] (X78-RGADRAGGGGRGD-OH)

>  <clearance (mL/min/kg)>
0.508

$$$$
>  <COMPOUND>
C[C@H](NC(=O)CNC(=O)[C@H](CCCNC(=N)N)NC(=O)CCCCCCCCCCCc1ccc(N2C(=O)C=CC2=O)cc1)C(=O)N[C@@H](CC(=O)O)C(=O)N[C@@H](CCCNC(=N)N)C(=O)N[C@@H](C)C(=O)NCC(=O)NCC(=O)NCC(=O)NCC(=O)N[C@@H](CCCNC(=N)N)C(=O)NCC(=O)N[C@@H](CC(=O)O)C(=O)O [X47] (X36-RGADRAGGGGRGD-OH)

>  <clearance (mL/min/kg)>
0.502

$$$$
